Molecular target: T1, human IL-36R on cells (human, UniProt Q9HB29 20-575)
T1 sequence (looked up): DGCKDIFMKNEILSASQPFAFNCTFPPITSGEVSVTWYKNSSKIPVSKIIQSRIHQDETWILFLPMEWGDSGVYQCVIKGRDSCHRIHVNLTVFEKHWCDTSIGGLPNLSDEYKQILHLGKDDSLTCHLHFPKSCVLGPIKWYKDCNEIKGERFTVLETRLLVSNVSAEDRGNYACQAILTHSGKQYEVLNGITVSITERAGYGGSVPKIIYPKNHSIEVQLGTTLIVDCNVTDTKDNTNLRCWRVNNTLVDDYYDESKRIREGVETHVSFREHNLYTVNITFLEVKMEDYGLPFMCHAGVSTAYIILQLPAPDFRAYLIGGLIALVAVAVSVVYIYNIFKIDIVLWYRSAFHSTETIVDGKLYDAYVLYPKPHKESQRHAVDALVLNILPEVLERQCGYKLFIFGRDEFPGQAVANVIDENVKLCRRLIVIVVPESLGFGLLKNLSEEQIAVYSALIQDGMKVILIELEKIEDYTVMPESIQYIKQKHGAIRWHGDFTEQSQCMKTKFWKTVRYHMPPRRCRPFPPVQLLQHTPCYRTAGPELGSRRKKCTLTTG
Experiment: cell-based or functional assay
measurement_type: IC90, pNFκB, human primary keratinocytes (NHK), trun-IL-36a (nM)
Please reply with the bare figure in nM and do not write the unit itself.

Examples with their reported IC90, pNFκB, human primary keratinocytes (NHK), trun-IL-36a follow.
{"binder": "antibody 73C5 (antibody, V domains shown, Mouse monoclonal from hybridoma; also called 73C5C10; Mouse 73C5) VH: QVQLKESGPGLVAPSQSLSITCTVSGFSLTNYAVHWVRQFPGKGLEWLGVIWSDGSTDFNAPFKSRLSINKDNSKSQVFFKMNSLQIDDTAIYYCARKGGYSGSWFAYWGQGTLVTVSA VL: DIVMTQSQKFLSTSVGVRVSVTCKASQDVGTNVLWYQQKIGQSPKPLIYSASYRHSGVPDRFTGSGSGTDFTLIISNVQSEDLAEYFCQQYSRYPLTFGPGTKLELK", "reading": 10.7}
{"binder": "antibody 33D10 (antibody, V domains shown, Mouse monoclonal from hybridoma; also called 33D10B12; Mouse 33D10) VH: QVQLQQSGTELLKPGASVKLSCKASGNTVTSYWMHWVKQRPGQGLEWIGEILPSTGRTNYNENFKGKAMLTVDKSSSTAYMQLSSLASEDSAVYYCTIVYFGNPWFAYWGQGTLVTVSA VL: QIVLTQSPAIMSASLGERVTMTCTASSSVSSSYLHWYQKKPGSSPKLWVYSTSNLASGVPVRFSGSGSGTSYSLTISSMEAEDAATYYCHQHHRSPVTFGSGTKLEMK", "reading": 1.8}
{"binder": "antibody 78C8 (antibody, V domains shown, Mouse monoclonal from hybridoma; also called 78C8D1; Mouse 78C8) VH: QVQLKESGPVLVAPSQSLSITCTVSGFSLTKFGVHWIRQTPGKGLEWLGVIWAGGPTNYNSALMSRLTISKDISQSQVFLRIDSLQTDDTAMYYCAKQIYYSTLVDYWGQGTSVTVSS VL: DVLLTQTPLSLPVSLGDQASISCRSSQNIVHSNGNTYLQWYLQKPGQSPKLLIYKVSNRFSGVPDRFSGSGSGTDFTLKISRVEAEDLGVYYCFQGSHVPFTFGAGTKLELK", "reading": 11.6}
{"binder": "antibody 73F6 (antibody, V domains shown, Mouse monoclonal from hybridoma; also called 73F6F8; Mouse 73F6) VH: QVQLKESGPGLVAPSQSLSITCTVSGFSLTNYAVHWVRQFPGKGLEWLGVIWSDGSTDYNAPFKSRLSINKDNSKSQVFFKMNSLQTDDTAIYYCARKGGYSGSWFAYWGQGTLVTVSA VL: DIVMTQSQKFLSTSVGVRVSVTCKASQDVGTNVLWYQQKIGQSPKALIYSASYRHSGVPDRFTGSGSGTDFTLIITNVQSEDLAEYFCQQYSRYPLTFGPGTKLELK", "reading": 8.2}

Now, please, on to the next binder.
What the record says about antibody 81B4 (antibody, V domains shown, Mouse monoclonal from hybridoma; also called 81B4E11; Mouse 81B4) VH: QVQLQQPGADFVRPGASMRLSCKASGYSFTSSWIHWVKQRPGQGLEWIGEINPGNVRTNYNENFRNKATLTVDKSSTTAYMQLRSLTSADSAVYYCTVVFYGEPYFPYWGQGTLVTVSA VL: QIVLTQSPAIMSASLGERVTMTCTASSSVSSSYFHWYQQKPGSSPKLWIYRTSNLASGVPGRFSGSGSGTSYSLTISSMEAEDAATYYCHQFHRSPLTFGAGTKLELK : IC90, pNFκB, human primary keratinocytes (NHK), trun-IL-36a is 1.3

All values here come from patent US20200231684A1.
